System: 786-0 renal
ASSAY SUMMARY: NCI tumour cell line growth inhibition, 48 h
READOUT NAME: TGI

Below, 4 compounds whose answers are already recorded.
>>> experimental_result("CCN(CC)CCN(C)CCc1ccc(Br)cc1")
"> 100 µM"
>>> experimental_result("CC(c1ccccc1)N1CC(C)(c2ccccc2)N(O)C(c2ccccc2)C1C (stereo not given)")
"30.2 µM"
>>> experimental_result("CC(C)C1CC(CO)(CNc2cc(Cl)nc(N)n2)C1 (stereo not given)")
"> 100 µM"
>>> experimental_result("COc1ccc2[nH]c(-c3ccccc3)cc2c1")
"> 100 µM"

With those in mind, consider the next compound.
Task: Item [N-]=[N+]=C(C(=O)C(=[N+]=[N-])C(=O)c1ccccc1)C(=O)c1ccccc1 has what recorded TGI?
Result: > 100 µM

---

Test system: SW-620 colon
ASSAY SUMMARY: NCI tumour cell line growth inhibition, 48 h
READOUT NAME: TGI

Below, 6 molecules whose answers are already recorded.
>>> experimental_result("COc1ccc(-c2nc(-c3cnccn3)n(C3OC(CO)C(O)C(O)C3O)n2)cc1 (configuration not stated)")
"> 100 µM"
>>> experimental_result("COc1ccc(-c2c3ccccc3c(-c3ccc(OCCCCCBr)cc3)c3ccccc23)cc1")
"> 100 µM"
>>> experimental_result("O=C1C(c2ccccc2)=C(c2ccccc2)[C@H](c2ccccc2)[C@]1(Cc1nnn(-c2ccc([N+](=O)[O-])cc2)c1N1CCOCC1)c1ccccc1")
"> 37.5 µM"
>>> experimental_result("C=C[C@@](C)(/C=C/c1ccc(O)cc1)CCC=C(C)C")
"34 µM"
>>> experimental_result("NC(=O)c1c[se]c(C2OC(COP(=O)(O)CP(=O)(O)OCC3OC(n4cnc5c(N)ncnc54)C(O)C3O)C(O)C2O)n1 (configuration not stated)")
"> 100 µM"
>>> experimental_result("Nc1ccn([C@@H]2C(F)=C(CO)[C@@H](O)[C@H]2O)c(=O)n1")
"> 100 µM"

Task: Item COc1cc2nnn3c4ncccc4c(N=O)c3c2cc1OC has what recorded TGI?
Result: > 100 µM

Task: Item CC[P+]1(CC)CCCC1 has what recorded TGI?
Result: > 100 µM

Task: Item CC(=O)Nc1ccc(C(=O)N2N=C(C)/C(=C/c3ccc(O)cc3)C2=O)cc1 has what recorded TGI?
Result: > 100 µM

Task: Item COC(=O)c1c(OC)cc2cc3c(c(O)c2c1C)C(=O)C1(O)C(=O)C=C(OC)C(OC(=O)CC(C)N)=C1C3=O (configuration not stated) has what recorded TGI?
Result: > 100 µM

Task: Item Cc1cc(NC(=O)NC(=O)c2ccccc2N(C)C)ccc1Oc1ncc(Br)cn1 has what recorded TGI?
Result: > 71.1 µM

Task: Item C[N+](C)=c1nc(N2CCOCC2)ss1 has what recorded TGI?
Result: > 100 µM

---

Test system: RXF 393 renal
ASSAY SUMMARY: NCI tumour cell line growth inhibition, 48 h
Measured log10 TGI by item
Transform log10 | Measure TGI | Unit µM

Below, 6 compounds whose answers are already recorded.
>>> experimental_result("COc1cc([C@H]2c3[nH]c4ccccc4c3C[C@H]3COC(=O)N32)cc(OC)c1O")
0.18
>>> experimental_result("COc1ccc(-c2cc(/C=C/C(=O)c3cc(OC)c(OC)c(OC)c3)[nH]n2)cc1OC")
0.50
>>> experimental_result("C/C(=C\\Cc1cc(O)ccc1O)CCc1c(C)cc(O)c(C=O)c1C")
1.57
>>> experimental_result("CN(C)C/C=C/C(=O)Nc1ccc(C(=O)N2CCC[C@@H](Nc3ncc(Cl)c(-c4c[nH]c5ccccc45)n3)C2)cc1")
-0.25
>>> experimental_result("c1ccc(CC(NCCNC(Cc2ccccc2)c2ccccc2)c2ccccc2)cc1 (stereo not drawn)")
-0.15
>>> experimental_result("CC1=C2NCN(C)N=C2C(C#N)(C#N)C1(C#N)C#N")
1.63

Task: Item O=C(/C=C/c1cn(-c2ccccc2)nc1-c1ccc([N+](=O)[O-])cc1)c1ccc(Cl)cc1 has what recorded log10 TGI?
Result: 0.72

Task: Item Cc1c2cccc-2ccc2c1[nH]c1ccccc12 has what recorded log10 TGI?
Result: 0.97
